Consider the following compounds; for each one, report its composite z-score.
# system-under-test: Follistatin-related protein 3 (Homo sapiens)
# protocol-summary: compounds binding follistatin-related protein 3 – biochemical, small-molecule microarray, 635 nm fluorescence, primary screen (AID 1105);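 further: score merges emission near 667 nm and signal to noise per printed spot across three slides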
# condition-label: FSTL3 binding, higher = more signal
The answer should be written as a number, with no unit following it.

Reported composite z-score of O=C1OCC=C[C@H]2OC34C=CCN(CCN5CCOCC5)C(=O)[C@H]3N(CCO)C(=O)[C@@H]4[C@@H]12 (stereo partly drawn) : 0.241

Entry CCOc1cc(C(O)C2C=CC3C(=O)N(c4ccccc4)C(=O)C3N2Nc2ccc(C(C)C)cc2)ccc1O (stereo not drawn) — recorded composite z-score = 0.912

Looking up O=C1C2C=CC(C(O)c3ccc(-c4ccccc4)s3)N(Nc3ccccc3)C2C(=O)N1c1ccccc1 (stereo not drawn) , I see its composite z-score listed as 1.03

OB1C=CCC(CCc2ccccc2)O1 (stereo not drawn) has a reported composite z-score of -0.544

Entry `COc1ccc([Si](C)(C)[C@H]2[C@H](CC(=O)N3CCC[C@H]3CO)O[C@@]3(C(=O)N(Cc4cccc(N5CCOC5=O)c4)c4ccccc43)[C@@H]2C)cc1` ; composite z-score = 1.3

So for CC(C)N1CC=CC23O[C@@H]4C=CCOC(=O)[C@@H]4[C@H]2C(=O)N(CCCCCO)[C@@H]3C1=O (stereo partly drawn) , the logged composite z-score turned out to be -0.266

The measured composite z-score associated with CN1C(=O)C2C=CC(C(O)c3ccc(F)cc3)N(N(c3ccccc3)c3ccccc3)C2C1=O (stereo not drawn) reads 0.549

Measured composite z-score of O=C1C2C=CC(C(O)C=Cc3ccc([N+](=O)[O-])cc3)N(n3cnnc3)C2C(=O)N1Cc1ccccc1 (stereo not drawn) : 0.906

---

# system-under-test: Pro-neuregulin-1, membrane-bound isoform (Homo sapiens) (UniProt Q02297)
# Sequence (Q02297 whole entry, looked up, canonical isoform): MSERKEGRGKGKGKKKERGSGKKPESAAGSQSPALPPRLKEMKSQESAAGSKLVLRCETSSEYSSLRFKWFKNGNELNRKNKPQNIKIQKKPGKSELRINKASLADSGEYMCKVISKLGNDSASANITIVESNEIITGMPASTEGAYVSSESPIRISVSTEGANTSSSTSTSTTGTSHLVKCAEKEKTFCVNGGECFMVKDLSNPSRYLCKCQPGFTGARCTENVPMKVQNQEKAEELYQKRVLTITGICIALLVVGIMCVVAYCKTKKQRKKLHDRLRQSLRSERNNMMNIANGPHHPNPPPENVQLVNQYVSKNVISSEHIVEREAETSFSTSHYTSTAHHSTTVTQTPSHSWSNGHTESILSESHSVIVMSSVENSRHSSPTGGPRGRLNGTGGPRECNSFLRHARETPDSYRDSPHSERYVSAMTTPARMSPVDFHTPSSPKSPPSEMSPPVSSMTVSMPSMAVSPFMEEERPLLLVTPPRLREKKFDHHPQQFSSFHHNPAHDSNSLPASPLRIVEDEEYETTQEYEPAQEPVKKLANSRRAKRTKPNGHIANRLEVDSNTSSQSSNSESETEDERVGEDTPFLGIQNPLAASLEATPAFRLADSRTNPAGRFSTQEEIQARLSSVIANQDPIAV
# protocol-summary: small molecules binding neuregulin-1 protein – biochemical, small-molecule microarray, fluorescence 635/667, psychiatric disease protein project, primary screen (AID 1075);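 further: score combines 667 nm spot fluorescence with signal to noise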
# condition-label: NRG1 binding, 635 nm fluorescence, higher = more signal
So I've got a bunch of compounds here, and I need their composite z-score values.
Please respond with just the number, no unit label.

Reported composite z-score (Pro-neuregulin-1, membrane-bound isoform (Homo sapiens) (UniProt Q02297)) for entry `C=CCOC(=O)[C@H]1[C@@H]2C(=O)O[C@@H](c3ccccc3)[C@@H](c3ccccc3)N2[C@@H](c2ccc(OCCOC(=O)[C@H]3C[C@H]4C(=O)N[C@@H](CCCCN(C)C)C(=O)N4[C@H]3c3cccc(OCCO)c3)cc2)[C@]12C(=O)Nc1ccc(I)cc12` is 0.605

Pro-neuregulin-1, membrane-bound isoform (Homo sapiens) (UniProt Q02297) data for `O=C(CS)NCCCCCNC(=O)[C@H]1C[C@H]2C(=O)NCC(=O)N2[C@H]1c1cccc(OCCO)c1` ; its composite z-score: 1.33

Known value: Pro-neuregulin-1, membrane-bound isoform (Homo sapiens) (UniProt Q02297) composite z-score of the compound `CC(=CC1CCCCC1)[C@@H](NC(=O)c1cccnc1)c1ccc(-c2ccccc2)cc1` equals 0.0657

The compound `NCCCCCNC(=O)[C@H]1C[C@H]2C(=O)N3CCC[C@H]3C(=O)N2[C@H]1c1ccc(O)cc1` , when measured on Pro-neuregulin-1, membrane-bound isoform (Homo sapiens) (UniProt Q02297), yielded composite z-score of 1.62

Bench note, Pro-neuregulin-1, membrane-bound isoform (Homo sapiens) (UniProt Q02297): `CCCCCCc1nc(-c2ccc(-c3ccc(Cl)c(Cl)c3)o2)c(C)c2c1[Si](C(C)C)(C(C)C)OC2` , composite z-score reads 0.0643

Measured on Pro-neuregulin-1, membrane-bound isoform (Homo sapiens) (UniProt Q02297), `CCCNC(=O)[C@@]1(Sc2ccc(C)cc2)CC(=O)N(Cc2ccccc2C(F)(F)F)[C@@H]1c1ccc(CO)cc1I` has a documented composite z-score of 1.22

The compound `CCOC(=O)C[C@H]1[C@H](OC(=O)c2ccc(-c3ccccc3)cc2)[C@@H](NC(=O)c2ccccc2)c2cc(OCCCO)ccc2N1C(=O)c1ccc2ccccc2n1` on Pro-neuregulin-1, membrane-bound isoform (Homo sapiens) (UniProt Q02297): composite z-score was 0.742

The recorded composite z-score with Pro-neuregulin-1, membrane-bound isoform (Homo sapiens) (UniProt Q02297) for `COC(=O)[C@@]1(Cc2ccc(OC)cc2)[C@H]2c3cc(C(=O)N4CCCC4)n(Cc4nc5ccccc5[nH]4)c3C[C@H]2CN1C(=O)c1ccccc1` was 2.11

Pro-neuregulin-1, membrane-bound isoform (Homo sapiens) (UniProt Q02297) assay, compound `COC(=O)[C@@]1(Cc2ccccc2)[C@H]2c3cc(C(=O)N4CCCC4)n(Cc4ccc(O)c(OC)c4)c3C[C@H]2CN1C(=O)c1ccccc1` , recorded composite z-score = 1.66

With Pro-neuregulin-1, membrane-bound isoform (Homo sapiens) (UniProt Q02297) as the test system, `Cc1ccc(S[C@]2(C(=O)O)CC(=O)N(Cc3ccccc3C(F)(F)F)[C@@H]2c2ccc(CO)cc2I)cc1` showed composite z-score of 0.695

`CC(C)[Si](C#CCCCC#N)(O[C@H](c1ccccc1)c1cn(Cc2cccc(Cl)c2)nn1)C(C)C` tested on Pro-neuregulin-1, membrane-bound isoform (Homo sapiens) (UniProt Q02297) gave composite z-score: -0.0808

Readout composite z-score for `C=C(/C(=C/C[C@H](OC(=O)c1ccncc1)c1ccc(OCCO)cc1)c1cc(C(=O)OC)ccc1OC)C(C)C` , test system Pro-neuregulin-1, membrane-bound isoform (Homo sapiens) (UniProt Q02297), was 0.892

Log: Pro-neuregulin-1, membrane-bound isoform (Homo sapiens) (UniProt Q02297), compound CC(c1ccccc1)C(O)C1C=CC2C(=O)N(c3ccccc3)C(=O)C2N1Nc1ccccc1 (centres undefined) , composite z-score = 1.53

Case `NC(=O)[C@@H]1[C@H]2C(=O)O[C@H](c3ccccc3)[C@H](c3ccccc3)N2[C@H](c2ccc(OCCO)cc2)[C@@]12C(=O)Nc1ccc(C#CC3=CCCCC3)cc12` , Pro-neuregulin-1, membrane-bound isoform (Homo sapiens) (UniProt Q02297), composite z-score recorded as 1.11

---

Please go through the items and note down their z-score.
# protocol-summary: change in splice reporter luminescence, either direction, cell-based, HEK293, spliceosome inhibition project, primary screen (AID 1101);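 further: HEK293 cells carrying a splicing-competent luciferase reporter gene; test concentration not given here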
# condition-label: HEK293 splicing luciferase reporter, 24 h, higher = more signal, called active from +8 up or from −8 down
The source made the active and inactive calls.

The reported value for `CN(C)CCCC[C@@H]1NC(=O)[C@H]2C[C@@H](C(=O)NCCCCCN)[C@@H](c3cccc(OCCO)c3)N2C1=O` in terms of z-score is 0.0522 (inactive)

Per the records, this compound ( `C=CC[C@]1(C(=O)NCc2ccccc2)N=C(c2ccc(OCCCO)cc2)O[C@H]1c1ccccc1CN=[N+]=[N-]` ) has z-score equal to -0.169 (inactive)

For reference, reported z-score for `COC(=O)[C@@]1(Cc2ccc(OC)cc2)[C@H]2c3cc(C(=O)N4CCCC4)n(CCSCCO)c3C[C@H]2CN1C(=O)c1ccccc1` stands at -0.657 (inactive)

GET /value?item= `C[N+](C)(C)CCCCCCNC(=O)[C@H]1C[C@H]2C(=O)N[C@@H](Cc3ccccc3)C(=O)N2[C@H]1c1cccc(OCCO)c1` &field=z-score returns 0.264 (inactive)

// field: z-score; key: `C=C(C(=O)CC[C@H](OC(C)=O)c1ccccc1OCCO)C(C)C` ; value = -1.94 (inactive)

Quick note, z-score for CCOc1cc(C(O)C2C=CC3C(=O)N(c4ccccc4)C(=O)C3N2Nc2ccc(C(C)C)cc2)ccc1O (centres undefined) landed at 0.21 (inactive)

# compound `CO[C@H]1O[C@H](CO)[C@@H](OC(=O)Nc2ccccc2-c2ccccc2)[C@H](OC(=O)Nc2ccccc2-c2ccccc2)[C@@H]1OC(=O)Nc1ccccc1-c1ccccc1` ; its z-score = 0.389 (inactive)

Entry `C=CCNC(=O)[C@@H]1[C@H]2C(=O)O[C@H](c3ccccc3)[C@H](c3ccccc3)N2[C@H](c2ccc(OCCO)cc2)[C@@]12C(=O)N(C(=O)OCCOC)c1ccc(C#CCNC(N)=O)cc12` — recorded z-score = 0.184 (inactive)

Field z-score (entry CC(C)N1CC=CC23O[C@@H]4C=CCOC(=O)[C@@H]4[C@H]2C(=O)N(CCCCCO)[C@@H]3C1=O (some centres undefined) ) reads -1.54 (inactive)

# z-score (compound: C=CCC(OC(C)=O)[C@@H]1[C@@H](N(Cc2ccc(-c3cccc(C(F)(F)F)c3)o2)C(=O)c2cccc3ccccc23)c2cc(OCCCO)ccc2N1C(=O)Cc1ccc2ccccc2c1 (some centres undefined) ) is -0.896 (inactive)

Quick note, z-score for `CC(C)NC(=O)[C@@]1(Cc2ccccc2I)c2ccccc2C(=O)N(Cc2ccccc2Cl)[C@H]1c1ccc(CO)cc1` landed at -0.833 (inactive)

Reported z-score ( `Cc1ccc([C@H]2C(C(=O)O)=CCN2S(=O)(=O)c2ccc(C)cc2)cc1` ) = 0.0638 (inactive)

Sample `C=CCNC(=O)[C@@H]1[C@H]2C(=O)O[C@H](c3ccccc3)[C@H](c3ccccc3)N2[C@H](c2ccc(OCCO)cc2)[C@@]12C(=O)N(C(=O)OCCOC)c1ccc(C#CCC(C(=O)OC)C(=O)OC)cc12` ; z-score observed: 1.01 (inactive)

So for O=C1NC(=O)C2C1C=CC(C(O)c1ccc(I)cc1)N2Nc1ccccn1 (centres undefined) , the logged z-score turned out to be 1.04 (inactive)
